ASSAY NOTES: ATG_E_Box_CIS: Attagene CIS-FACTORIAL HepG2 Assay for human Enhancer Box (E-box) (AID 2282936)
EXPERIMENTAL PARAMETERS: HepG2 E-box cis-reporter transcription, actives raise or lower the signal
Active and inactive are the calls of the source. The calls were made as follows: active = hit-call score of the fitted dose curve at least 0.9, where 1 is the maximum; inactive = score below 0.9.
# output must be one of active, inactive

Worked set:
CCC(C)=NO    inactive
C=CCOC(=O)C(=C)C    inactive
CC(=O)CCc1ccccc1    inactive
CN(C)N=Nc1ccccc1    inactive
C=CC(C)(CCC=C(C)C)OC(=O)c1ccccc1 (centres undefined)    inactive
C/C=C(\C)C(=O)OCC/C=C\CC    inactive
CCCCCCCC#N    inactive
CCCCCC[C@@H](O)C/C=C\CCCCCCCC(=O)O    active
Nc1ccc(S(=O)(=O)Nc2cnc3ccccc3n2)cc1    inactive
OCCc1ccccn1    inactive

Query: recorded result category for "CC=CC(=O)O" in this test inactive

Query: recorded result category for "CC[N+](CC)(CC(=O)Nc1c(C)cccc1C)Cc1ccccc1" in this test inactive

Query: recorded result category for "COc1c2occc2cc2ccc(=O)oc12" in this test inactive

Query: recorded result category for "C=CN1CCCCCC1=O" in this test inactive

Query: recorded result category for "CC(=O)OC(C)(C)Cc1ccccc1" in this test inactive

Query: recorded result category for "Nc1nnc(-c2ccc([N+](=O)[O-])o2)o1" in this test inactive

Query: recorded result category for "Cc1ccccc1S(=O)(=O)O" in this test inactive

Query: recorded result category for "CC1(C)S[C@@H]2[C@H](NC(=O)[C@H](N)c3ccccc3)C(=O)N2[C@H]1C(=O)O" in this test inactive

Query: recorded result category for CC[N+](CC)(CC(=O)Nc1c(C)cccc1C)Cc1ccccc1 (tested in a mixture with another compound) in this test inactive

Query: recorded result category for "O=C1CCCCCCCCCCCCCC1" in this test inactive

Query: recorded result category for "O=C(O)Cc1c[nH]c2ccccc12" in this test inactive

Query: recorded result category for "CCCCn1cc[n+](C)c1" in this test inactive

Query: recorded result category for "F[B-](F)(F)F" in this test inactive

* * *

ASSAY NOTES: TOX21_p53_BLA_p4_viability: Viability Assessment in the Tox21 HCT-116 p53 Agonism Beta-lactamase Assay, Phase 4 (AID 2283597);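 also: hits lower the luminescence signal meaning cytotoxicity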
Results filed as inconclusive are left out. Activity calls are given as the source filed them. How the source made its calls: active means hit-call score of the fitted dose curve at least 0.9, where 1 is the maximum; inconclusive means response in the unintended direction; inactive means score below 0.9.
# output must be one of YES (active), NO (inactive)

Worked set:
COc1ccc(S(=O)(=O)N2c3ccc(Cl)cc3[C@@](O)(c3ccccc3Cl)[C@H]2C(=O)N2CCC[C@@H]2C(N)=O)cc1OC    NO
CNCCCC1c2ccccc2C=Cc2ccccc21    NO
COc1cc2c(N3CCN(C(=O)Nc4ccc(OC(C)C)cc4)CC3)ncnc2cc1OCCCN1CCCCC1    NO
CN1[C@@H]2CCC[C@H]1CC(NC(=O)c1nn(C)c3ccccc13)C2 (stereo partly drawn)    NO
CC1=CCCC(C)(C)C12CCC(C)O2 (stereo not drawn)    NO

Query: recorded result category for "CC(C)NNC(=O)c1ccncc1" in this test NO

Query: recorded result category for CC[C@@]1([C@@H]2O[C@@H]([C@H]3O[C@@](O)(CO)[C@H](C)C[C@@H]3C)C[C@@H]2C)CC[C@H]([C@]2(C)CC[C@]3(C[C@H](O)[C@@H](C)[C@@H]([C@@H](C)[C@@H](OC)[C@H](C)C(=O)O)O3)O2)O1 (stereo in doubt) in this test NO

Query: recorded result category for "Nc1cc(S(=O)(=O)O)cc2cc(S(=O)(=O)O)cc(O)c12" in this test NO

Query: recorded result category for "CCCCNC(N)=O" in this test NO

Query: recorded result category for "Cc1cc(N)c2cc(NC(=O)Nc3ccc4nc(C)cc(N)c4c3)ccc2n1" in this test YES

Query: recorded result category for "CCOC(=O)[C@H](CCc1ccccc1)N[C@@H](C)C(=O)N1CCC[C@H]1C(=O)O" in this test NO

Query: recorded result category for "CCOC(=O)CS" in this test NO

Query: recorded result category for "Cc1c(Cl)cccc1Nc1ncccc1C(=O)O" in this test NO

Query: recorded result category for "OCCN1CCN(CCCN2c3ccccc3Sc3ccc(Cl)cc32)CC1" in this test YES

Query: recorded result category for "N[C@@H](Cc1cc(I)c(O)c(I)c1)C(=O)O" in this test NO

Query: recorded result category for "NCc1ccccc1Sc1ccccc1CO" in this test NO

Query: recorded result category for "CCOC(=O)[C@H](CCc1ccccc1)N[C@@H](C)C(=O)N1[C@H](C(=O)O)C[C@@H]2CCC[C@@H]21" in this test NO

Query: recorded result category for "c1ccc(OCc2ccc(CCCN3CCOCC3)cc2)cc1" in this test NO

Query: recorded result category for "CC(C)COC(=O)c1ccc(N)cc1" in this test NO

Query: recorded result category for "BrCCCCCBr" in this test NO

Query: recorded result category for "CCOC(=O)c1c(N)sc2c1CCN(Cc1ccccc1)C2" in this test NO

Query: recorded result category for FC(F)OC(Cl)C(F)(F)F (stereo not drawn) in this test NO

Query: recorded result category for "CC1(C)C(\C=C/C=C\C=C/C=C2/N(CCCCS(=O)(=O)O)c3ccc4ccccc4c3C2(C)C)=[N+](CCCCS(=O)(=O)[O-])c2ccc3ccccc3c21" in this test NO

Query: recorded result category for "COc1ccccc1/C=C/C=O" in this test NO

Query: recorded result category for "CO[C@H]1/C=C/O[C@@]2(C)Oc3c(C)c(O)c4c(O)c(c5c(c4c3C2=O)=NC2(CCN(CC(C)C)CC2)N=5)NC(=O)/C(C)=C\C=C\[C@H](C)[C@H](O)[C@@H](C)[C@@H](O)[C@@H](C)[C@H](OC(C)=O)[C@@H]1C" in this test NO

Query: recorded result category for "OCCN1CCN(CC/C=C2/c3ccccc3Sc3ccc(Cl)cc32)CC1" in this test NO

Query: recorded result category for "C[C@]12C=CC(=O)N[C@@H]1CC[C@@H]1[C@@H]2CC[C@]2(C)[C@@H](C(=O)Nc3cc(C(F)(F)F)ccc3C(F)(F)F)CC[C@@H]12" in this test NO

Query: recorded result category for "C=C(C)C(=O)OCCCCCC" in this test NO

* * *

Read-out: Human Leukocyte Antigen - DR isotype (HLADR), HLA-DRA (gene 3122)
ASSAY NOTES: BSK_CASM3C_HLADR: BioMAP Diversity Plus: CASM3C Assay for Human Leukocyte Antigen - DR isotype (HLADR) Biomarker Activity (AID 2283043);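 also: cell-surface HLA-DR protein level quantified by ELISA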
EXPERIMENTAL PARAMETERS: primary human coronary artery smooth muscle cells; actives raise or lower the signal
The source made the active and inactive calls. The calls were made as follows: active = hit-call score of the fitted dose curve at least 0.9, where 1 is the maximum; inactive = score below 0.9.
# output must be one of active, inactive

Query: recorded result category for "CCCCCCCCCCCCCCCCCC[N+](C)(C)C" in this test active

* * *

ASSAY NOTES: ATG_ISRE_CIS: Attagene CIS-FACTORIAL HepG2 Assay for human Interferon Regulatory Factor 1 (IRF1) binding to an Interferon-Stimulated Response Element (ISRE) (AID 2282948)
EXPERIMENTAL PARAMETERS: HepG2 ISRE cis-reporter (Attagene), mRNA transcription readout; actives raise or lower the signal
The source made the active and inactive calls. Rule for the calls: active = hit-call score of the fitted dose curve at least 0.9, where 1 is the maximum; inactive = score below 0.9.
# output must be one of y = active, n = inactive

Worked set:
O=C(C1CCCCC1)N1CC(=O)N2CCc3ccccc3C2C1 (stereo not given)    n
CCCCCCC1CCC(=O)O1 (stereo not given)    n
CC/C=C\CCO    n

Query: recorded result category for "O=[N+]([O-])c1ccccc1C(F)(F)F" in this test n

Query: recorded result category for "NC(=O)c1ccc(N)cc1" in this test n

Query: recorded result category for "CNC(=C[N+](=O)[O-])NCCSCc1csc(CN(C)C)n1" in this test n

Query: recorded result category for "NC(N)=Nc1nc(CSCCC(N)=NS(N)(=O)=O)cs1" in this test n

Query: recorded result category for "CN1CCCC1" in this test n

Query: recorded result category for "CN(C)N=Nc1ccccc1" in this test n

Query: recorded result category for "C/C=C(\C)C(=O)OCC/C=C\CC" in this test n

Query: recorded result category for "Cc1cc(-n2nc3ccc(Cl)cc3n2)c(O)c(C(C)(C)C)c1" in this test n

Query: recorded result category for O=C1NC(=O)C2CC=CCC12 (stereo not given) in this test n

Query: recorded result category for "Nc1ccc(S(=O)(=O)Nc2cnc3ccccc3n2)cc1" in this test n

Query: recorded result category for "OCCN(CCO)c1cccc(Cl)c1" in this test n

* * *

ASSAY NOTES: TOX21_p53_BLA_p2_viability: Viability Assessment in the Tox21 HCT-116 p53 Agonism Beta-lactamase Assay, Phase 2 (AID 2283591);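 also: compound exposure lasted 16 h at 37 °C; actives lower the ATP signal meaning cytotoxicity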
Results filed as inconclusive are left out. The source made the active and inactive calls. The calls were made as follows: active = hit-call score of the fitted dose curve at least 0.9, where 1 is the maximum; inconclusive = response in the unintended direction; inactive = score below 0.9.
# output must be one of 1 (yes) for active, 0 (no) for inactive

Query: recorded result category for "CC(=O)N1C[C@H](O)C[C@H]1C(=O)O" in this test 0 (no)

Query: recorded result category for "CC[C@@]1(O)C(=O)OCc2c1cc1n(c2=O)Cc2cc3c([N+](=O)[O-])cccc3nc2-1" in this test 0 (no)

Query: recorded result category for "ClC(Cl)(Cl)c1ccc(C(Cl)(Cl)Cl)cc1" in this test 0 (no)
